target: Glucose-dependent insulinotropic receptor (Homo sapiens); test: Agonist activity at human GPR119 by HTRF cAMP assay; type: functional
Sequence (Q8TDV5 whole entry): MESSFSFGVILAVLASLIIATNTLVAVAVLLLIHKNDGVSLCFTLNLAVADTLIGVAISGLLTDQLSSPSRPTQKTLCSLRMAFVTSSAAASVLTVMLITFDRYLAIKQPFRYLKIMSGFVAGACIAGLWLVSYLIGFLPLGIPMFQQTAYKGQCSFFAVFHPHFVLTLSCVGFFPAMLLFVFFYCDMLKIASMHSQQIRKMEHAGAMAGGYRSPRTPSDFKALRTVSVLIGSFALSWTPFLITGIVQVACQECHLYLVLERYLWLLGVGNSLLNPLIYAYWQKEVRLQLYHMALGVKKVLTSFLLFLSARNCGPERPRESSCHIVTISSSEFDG
MEASURED PROPERTY: EC50 (nM)
Write it as a number; the unit nM goes unstated.

Use these answered entries as a reference point.
{"columns": ["SMILES STRING", "TGT", "UNIT SPEC", "EC50"],
 "data": [
  ["CS(=O)(=O)c1cnc(O[C@H]2CC[C@H](OC3CCN(CC4(F)CCCC4)CC3)CC2)cn1", "Glucose-dependent insulinotropic receptor (Homo sapiens)", "nM", 101],
  ["CS(=O)(=O)c1cnc(O[C@H]2CC[C@H](OC3CCN(C(=O)Oc4ccccc4)CC3)CC2)cn1", "Glucose-dependent insulinotropic receptor (Homo sapiens)", "nM", 9.6],
  ["CC(C)(C)OC(=O)N1CCC(O[C@H]2CC[C@H](Oc3ccc(S(C)(=O)=O)c(F)c3)CC2)CC1", "Glucose-dependent insulinotropic receptor (Homo sapiens)", "nM", 52]
]}

Moving on to another molecule below.
Which EC50 value is on record for `CC(C)(C)OC(=O)N1CCC(O[C@H]2CC[C@H](Oc3ccc(S(C)(=O)=O)cn3)CC2)CC1` ? 47
